Test: Bioavailability after peroral administration (3 mg/kg) in dog was determined; Range 41-98%
Type: ADME, organism-based, Canis lupus familiaris
Details: in vivo, po, read-out: Bioavailabiility
parameter.measured: bioavailability

Query string: May I ask what bioavailability has been recorded for CCN(CC)CCNC(=O)c1ccc(NS(C)(=O)=O)cc1.Cl [SEMATILIDE HYDROCHLORIDE] ?
Result string: 41%

---

Assay: Half life period was determined
Conditions: dog
parameter.measured: half-life

Query string: # query: half-life of entry CCN(CC)CCNC(=O)c1ccc(NS(C)(=O)=O)cc1.Cl [SEMATILIDE HYDROCHLORIDE]
Result string: 2.7 h
